Attribution: paper PMC5301048

# test_protocol: CSF study, plasma and CSF pharmacokinetics
# Type: in vivo
# reported_conditions: male, human, CSF, oral, 35 mg, 35 mg b.i.d, Day 4, 5 h post-dose, mean (CV%), read-out: CCSF, 5h (concentration in CSF)
result_type: concentration at 5 h (ng/mL)
Numbers only, in ng/mL.

q: # get_value(readout='concentration at 5 h', item= O=C(c1csc(-c2cn[nH]c2)c1)N1C2CCC1CC(O)(c1ncccn1)C2 (stereo not shown) )
a: 69.8

---

# test_protocol: Pharmacokinetics in dog (i.v. and p.o.)
# Format: in vivo
# reported_conditions: Beagle, plasma, mean ± SD
result_type: half-life (h)
Give bare numbers, in h.

>>> val("O=C(c1csc(-c2cn[nH]c2)c1)N1C2CCC1CC(O)(c1ncccn1)C2 (centres unmarked)")
2.79

Proceed to the following item.
q: half-life lookup needed for O=C(c1csc(-c2cn[nH]c2)c1)N1C2CCC1CC(F)(c1ccccn1)C2 (centres unmarked) , thanks.
a: 3.21

---

# test_protocol: CSF study, plasma and CSF pharmacokinetics
# Format: in vivo
# reported_conditions: male, human, CSF (relative to free plasma), oral, 35 mg, 35 mg b.i.d, Day 4, read-out: CSF levels as % of the free plasma levels, range
result_type: Kp at 5 h

q: Entry O=C(c1csc(-c2cn[nH]c2)c1)N1C2CCC1CC(O)(c1ncccn1)C2 (stereo not shown) has what Kp at 5 h?
a: 0.25 to 0.4

---

# test_protocol: Single ascending dose study, pharmacokinetics
# Format: in vivo
# reported_conditions: both sexes, urine and plasma; human, single oral dose 10 mg; mean (CV%); read-out: CLR (renal clearance) (converted)
result_type: CL renal (mL/min)
Numbers only, in mL/min.

q: Looking for the measured CL renal of O=C(c1csc(-c2cn[nH]c2)c1)N1C2CCC1CC(O)(c1ncccn1)C2 (stereo not shown) , can you help?
a: 1.17

---

# test_protocol: Multiple ascending dose study, pharmacokinetics
# Format: in vivo
# reported_conditions: male, human, plasma, oral, 20 mg, 20 mg b.i.d, Day 1, median (range), read-out: Tmax
result_type: Tmax (h)
Give bare numbers, in h.

q: Entry O=C(c1csc(-c2cn[nH]c2)c1)N1C2CCC1CC(O)(c1ncccn1)C2 (stereo not shown) has what Tmax?
a: 4

---

# test_protocol: Multiple ascending dose study, pharmacokinetics
# Type: in vivo
# reported_conditions: male, human, plasma, oral, 10 mg, 10 mg b.i.d, Day 1, median (range), read-out: Tmax
result_type: Tmax

q: Query (molecule): O=C(c1csc(-c2cn[nH]c2)c1)N1C2CCC1CC(O)(c1ncccn1)C2 (stereo not shown) ; field requested: Tmax
a: 6 h

---

Exercise: for every item that follows, state its recorded Kp.
# test_protocol: Tissue exposure measurements in rats (plasma and brain)
# Format: in vivo
# reported_conditions: male, Sprague Dawley, rat, brain and plasma, po, 10 mg/kg, 10 mg·kg^−1 oral gavage, read-out: Brain : plasma ratio
Numbers only.

Record excerpt, results attached:
>>> val("O=C(c1csc(-c2cn[nH]c2)c1)N1C2CCC1CC(O)(c1ncccc1Cl)C2 (stereo not shown)")
0.31
>>> val("O=C(c1csc(-c2cn[nH]c2)c1)N1C2CCC1CC(O)(c1ccccn1)C2 (stereo not shown)")
0.02
>>> val("O=C(c1csc(-c2cn[nH]c2)c1)N1C2CCC1CC(O)(c1ccccc1)C2 (stereo not shown)")
0.07

Below: the item to evaluate.
q: For the compound shown here, N#CC1(c2ccccn2)CC2CCC(C1)N2C(=O)c1csc(-c2cn[nH]c2)c1 (stereo not shown) , give the reported Kp.
a: 0.03

---

# test_system: CYP2D6 (Homo sapiens, UniProt P10635)
# Construct: tissue Cyprotex Discovery Limited; host or cells: human liver microsomes
# Sequence (P10635 whole entry): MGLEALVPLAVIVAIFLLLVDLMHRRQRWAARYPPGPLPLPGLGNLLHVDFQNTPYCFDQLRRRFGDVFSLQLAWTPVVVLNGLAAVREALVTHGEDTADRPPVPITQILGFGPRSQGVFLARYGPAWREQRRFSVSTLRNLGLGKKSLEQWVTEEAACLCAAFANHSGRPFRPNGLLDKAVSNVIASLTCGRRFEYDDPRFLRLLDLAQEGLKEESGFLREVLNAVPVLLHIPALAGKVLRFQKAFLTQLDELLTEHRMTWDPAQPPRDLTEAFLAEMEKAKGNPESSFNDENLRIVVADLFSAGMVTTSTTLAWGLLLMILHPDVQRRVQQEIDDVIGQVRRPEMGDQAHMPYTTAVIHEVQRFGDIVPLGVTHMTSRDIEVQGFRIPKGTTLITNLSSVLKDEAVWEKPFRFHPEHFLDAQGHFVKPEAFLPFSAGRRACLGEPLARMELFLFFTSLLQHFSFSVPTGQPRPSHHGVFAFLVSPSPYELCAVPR
# test_protocol: Cytochrome P450 inhibition, CYP2D6
# Assay type: in vitro ADME
# reported_conditions: human liver microsomes; read-out: CYP450 isoform 2D6 IC50
result_type: IC50

q: Missing value: IC50, CYP2D6 (Homo sapiens, UniProt P10635), entry O=C(c1csc(-c2cn[nH]c2)c1)N1C2CCC1CC(O)(c1ncccn1)C2 (stereo not shown) . Fill in?
a: > 50 µM

---

# test_protocol: Plasma protein binding, human plasma
# Assay type: in vitro ADME
# reported_conditions: human, pooled human plasma; read-out: bound to plasma proteins (converted)
# Procedure: Plasma protein binding was determined using pooled human plasma according to the method described in WO2011135276 (Webster et al., 2011a).
result_type: fraction unbound

q: Field request: fraction unbound | item: O=C(c1csc(-c2cn[nH]c2)c1)N1C2CCC1CC(O)(c1ncccn1)C2 (stereo not shown)
a: 0.3

---

# test_protocol: Single ascending dose study, pharmacokinetics
# Type: in vivo
# reported_conditions: both sexes, urine and plasma; human, single oral dose 35 mg; mean (CV%); read-out: CLR (renal clearance) (converted)
result_type: CL renal (mL/min)
Numbers only, in mL/min.

q: I'd like to know its CL renal. The compound in question is O=C(c1csc(-c2cn[nH]c2)c1)N1C2CCC1CC(O)(c1ncccn1)C2 (stereo not shown) [compound 4]
a: 2

---

# test_protocol: Multiple ascending dose study, pharmacokinetics
# Format: in vivo
# reported_conditions: male, human, plasma, oral, 10 mg, 10 mg b.i.d, Day 1, mean (CV%)
# Description: A double‐blind, randomized, placebo‐controlled multiple ascending dose study was carried out at Linear Clinical Research Ltd, Nedlands, Australia. Each cohort consisted of eight healthy male subjects. Each subject received UE2343 or placebo twice daily (b.i.d ) (12 hourly) in the fed state for 9 days (Day 1 to Day 9) and once on the morning of Day 10 (19 doses in total). […] Safety, pharmacokinetic and pharmacodynamic assessments were made at pre‐determined time‐points during each part of the study. […]
result_type: Cmax

q: Fill blank: measured Cmax of the compound O=C(c1csc(-c2cn[nH]c2)c1)N1C2CCC1CC(O)(c1ncccn1)C2 (stereo not shown) [compound 4] is ____.
a: 29.1 ng/mL

---

# test_protocol: Multiple ascending dose study, pharmacokinetics
# Type: in vivo
# reported_conditions: male, human, plasma, oral, 35 mg, 35 mg b.i.d, Day 1, mean (CV%)
result_type: Cmax (ng/mL)
Numbers only, in ng/mL.

q: Look at this compound and give its reported Cmax. O=C(c1csc(-c2cn[nH]c2)c1)N1C2CCC1CC(O)(c1ncccn1)C2 (stereo not shown)
a: 268

---

# test_system: human 11β‐HSD1 (Homo sapiens)
# Construct: a construct containing the full‐length gene coding for the human 11β‐HSD1 enzyme; expressed in transfected cells; host or cells: HEK293
# Sequence (P28845 whole entry): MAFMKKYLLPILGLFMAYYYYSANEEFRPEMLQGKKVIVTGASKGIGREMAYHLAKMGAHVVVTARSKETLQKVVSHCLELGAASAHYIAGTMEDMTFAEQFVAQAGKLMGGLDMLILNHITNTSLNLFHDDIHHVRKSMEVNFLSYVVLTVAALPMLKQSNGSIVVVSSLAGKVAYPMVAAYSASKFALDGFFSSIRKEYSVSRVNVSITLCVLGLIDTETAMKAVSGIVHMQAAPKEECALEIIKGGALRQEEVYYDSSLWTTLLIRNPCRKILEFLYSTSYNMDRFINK
# test_protocol: Inhibition of human 11β-HSD1 in stably transfected HEK293 cells
# Type: cell-based
# reported_conditions: HEK293 cells; mean ± SD [n]; read-out: Human 11β‐HSD1 IC50 in HEK293 cells
# Procedure: Inhibition of human 11β‐HSD1 was determined in HEK293 cells stably transfected with a construct containing the full‐length gene coding for the human 11β‐HSD1 enzyme according to the protocol described by Sooy et al., 2010.
For each of the molecules below, state its IC50.
One number for each entry, in nM.

// solved cases for IC50 follow
>>> val("O=C(c1csc(-c2cn[nH]c2)c1)N1C2CCC1CC(F)(c1ccccn1)C2 (stereo not drawn) [compound 6]")
22
>>> val("N#CC1(c2ccccn2)CC2CCC(C1)N2C(=O)c1csc(-c2cn[nH]c2)c1 (stereo not drawn) [compound 8]")
15
>>> val("O=C(c1csc(-c2cn[nH]c2)c1)N1C2CCC1CC(O)(c1cnccn1)C2 (stereo not drawn) [compound 5]")
37

Please state, for each entry, its recorded IC50.
1. O=C(c1csc(-c2cn[nH]c2)c1)N1C2CCC1CC(F)(c1ccccn1)C2 (stereo not drawn) [compound 7]
2. N#CC1(c2ncccn2)CC2CCC(C1)N2C(=O)c1csc(-c2cn[nH]c2)c1 (stereo not drawn) [compound 9]
3. O=C(c1csc(-c2cn[nH]c2)c1)N1C2CCC1CC(O)(c1ccccn1)C2 (stereo not drawn) [compound 2]

a:
[7, 13, 26]

---

# test_protocol: CSF study, plasma and CSF pharmacokinetics
# Format: in vivo
# reported_conditions: male, human, plasma, oral, 35 mg, 35 mg b.i.d, Day 4, mean (CV%)
result_type: Cmax (ng/mL)
Answers are plain numbers, in ng/mL.

q: GET /values?readout=Cmax&item= O=C(c1csc(-c2cn[nH]c2)c1)N1C2CCC1CC(O)(c1ncccn1)C2 (stereo not shown)
a: 708

---

# test_protocol: Single ascending dose study, pharmacokinetics
# Format: in vivo
# reported_conditions: both sexes, plasma; human, single oral dose 18 mg; median (range)
result_type: Tmax (h)
One number for each entry, in h.

q: Look up Tmax for this molecule: O=C(c1csc(-c2cn[nH]c2)c1)N1C2CCC1CC(O)(c1ncccn1)C2 (stereo not shown)
a: 4

---

# test_protocol: in vivo
# reported_conditions: male, Sprague Dawley, rat
result_type: half-life (min)
One number for each entry, in min.

q: Query: half-life; subject: O=C(c1csc(-c2cn[nH]c2)c1)N1C2CCC1CC(O)(c1ccccc1)C2 (stereo not shown)
a: 54
